System: Rattus norvegicus
Assay procedure: Cardiotoxicity in Wistar rat assessed as effect on Q-T interval at 10 mg/kg, iv after 15 mins
Assay type: toxicity, organism-based
Design: dose 10 mg/kg, route intravenous
Particulars: in vivo, 0.25 h
Value type: Activity (ms)
// note: answer is a bare numeric in ms

{"Compound": "CN1C(=O)N(CC(O)CN2CCN(c3ccccc3)CC2)C(c2ccccc2)(c2ccccc2)C1=O.Cl (racemic)", "Unit descriptor": "ms", "Observed": 74}
{"Compound": "C=CC(C(=O)OC)N1C(=O)N(CC(O)CN2CCN(c3ccccc3OC)CC2)C(c2ccccc2)(c2ccccc2)C1=O.Cl (racemic)", "Unit descriptor": "ms", "Observed": 71}

(Q) Identify measured Activity corresponding to COC(=O)CN1C(=O)N(CC(O)CN2CCN(c3ccccc3F)CC2)C(c2ccccc2)(c2ccccc2)C1=O.Cl (racemic)
(A) 71

(Q) Supply reported Activity belonging to this compound: COC(=O)C(C)N1C(=O)N(CC(O)CN2CCN(c3ccccc3OC)CC2)C(c2ccccc2)(c2ccccc2)C1=O.Cl (racemic)
(A) 82

(Q) Provide only the value of recorded Activity for CN1C(=O)N(CC(O)CN2CCN(c3ccccc3Cl)CC2)C(c2ccccc2)(c2ccccc2)C1=O.Cl (racemic)
(A) 72

(Q) # return recorded Activity for entry CCOc1ccccc1N1CCN(CC(O)CN2C(=O)N(C)C(=O)C2(c2ccccc2)c2ccccc2)CC1.Cl (racemic)
(A) 118

(Q) Provide only the value of recorded Activity for COC(=O)CN1C(=O)N(CC(O)CN2CCN(c3ccccc3OC)CC2)C(c2ccccc2)(c2ccccc2)C1=O.Cl (racemic)
(A) 74

(Q) Look up Activity of COC(=O)CN1C(=O)N(CCCCN2CCN(c3ccccc3OC)CC2)C(c2ccccc2)(c2ccccc2)C1=O.Cl and report it.
(A) 75.6
